Values were extracted from ChEMBL document CHEMBL1156829.

- assay name: NOVARTIS: Cytotoxicity against human hepatocellular carcinoma cell line (Huh7)
- Format: toxicity, cell-based, Huh-7
- details: Huh7 cells (hepatocellular carcinoma cell line)
The reader will find reported CC50 values listed item by item below.

Completed entries (count: 5):
{"molecule": "O[Si](CCCN1CCCCC1)(c1ccccc1)C1CCCCC1 (stereo not given)", "CC50": "33 µM"}
{"molecule": "CCCC(=O)N1CCN(C(=O)c2nc(-c3ccccc3)nc(CCC)c2C(=O)OCC)CC1C (stereo not given)", "CC50": "> 10 µM"}
{"molecule": "Cc1ccc(Nc2nc3c(N)nnc(N)c3nc2Nc2ccc(C)cc2)cc1", "CC50": "13.3 µM"}
{"molecule": "CCOc1ccc(NC2=C(N3CCOCC3)C(=O)c3ccccc3C2=O)cc1", "CC50": "> 100 µM"}
{"molecule": "CN(C)CCCNC1=NC=NC2C=C(Cl)C=CC12 (stereo not given)", "CC50": "> 100 µM"}

Name the recorded CC50 for `CCOC(=O)c1sc2nc(N)c(C#N)c(-c3cccs3)c2c1N` .
> 100 µM

Name the recorded CC50 for `Ic1nc2ccccc2s1` .
> 10 µM

Name the recorded CC50 for `O=C(CN1CCN(C(=O)c2ccco2)CC1)Nc1cc(C(F)(F)F)ccc1Cl` .
> 100 µM

Name the recorded CC50 for COc1ccc(C(=O)C2CC2c2ccc(Cl)cc2)cc1 (stereo not given) .
> 100 µM

Name the recorded CC50 for `O=C(Nc1ccccc1O)c1ccc(C(=O)N(C2CCCCC2)C2CCCCC2)cc1` .
> 100 µM

Name the recorded CC50 for `CCCCCCCC[n+]1c(C)n(C)c2cc(Cl)c(Cl)cc21` .
40.5 µM

Name the recorded CC50 for COc1ccc(C2CC(=O)C3=C(C2)NC(C)=C(C(=O)OC(C)C)C3c2cccc(C)c2)cc1OC (stereo not given) .
54.8 µM

Name the recorded CC50 for `COc1cccc(-c2cn3c(n2)sc2cc(C(=O)NC4CCN(Cc5ccccc5)CC4)ccc23)c1` .
> 100 µM
